- Measured On: T1, Ala mutant SEQ ID NO: 34 (human)
- T1 peptide: EENMDDQAMQDEMEIGY
- Assay: ELISA, peptide on plate (10 ug/mL)
Below, each entry is listed alongside its reported absorbance 490 nm/630 nm.
Report the value in OD with no unit label.

# annotated cases, reported absorbance 490 nm/630 nm shown
# Binder, Readout Kind, Unit Symbol, Result
data = [
    ("E9 (antibody, IgG1, V domains shown, Chicken variable regions in mouse chimeric antibody (IgG1) expression vectors; also called anti-PAD4 antibody E9; A11 etc) VH: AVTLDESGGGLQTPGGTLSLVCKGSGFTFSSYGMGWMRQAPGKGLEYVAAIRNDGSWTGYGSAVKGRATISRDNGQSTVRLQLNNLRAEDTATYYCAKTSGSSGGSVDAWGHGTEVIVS VL: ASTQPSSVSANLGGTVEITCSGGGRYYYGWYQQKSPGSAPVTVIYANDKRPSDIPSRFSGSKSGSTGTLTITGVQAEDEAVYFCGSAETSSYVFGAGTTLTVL", "absorbance 490 nm/630 nm", "OD", 0.047),
    ("H7 (antibody, IgG1, V domains shown, Chicken variable regions in mouse chimeric antibody (IgG1) expression vectors; also called anti-PAD4 antibody H7; A11 etc) VH: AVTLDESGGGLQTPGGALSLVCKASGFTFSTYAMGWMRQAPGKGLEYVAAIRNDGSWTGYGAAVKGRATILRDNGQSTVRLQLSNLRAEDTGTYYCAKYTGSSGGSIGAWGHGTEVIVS VL: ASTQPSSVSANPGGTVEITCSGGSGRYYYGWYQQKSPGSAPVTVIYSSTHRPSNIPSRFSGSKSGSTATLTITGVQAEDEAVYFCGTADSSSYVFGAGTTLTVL", "absorbance 490 nm/630 nm", "OD", 0.066),
]

Pending binder:
Quick note, absorbance 490 nm/630 nm for G8 (antibody, IgG1, V domains shown, Chicken variable regions in mouse chimeric antibody (IgG1) expression vectors; also called anti-PAD4 antibody G8; A11 etc) VH: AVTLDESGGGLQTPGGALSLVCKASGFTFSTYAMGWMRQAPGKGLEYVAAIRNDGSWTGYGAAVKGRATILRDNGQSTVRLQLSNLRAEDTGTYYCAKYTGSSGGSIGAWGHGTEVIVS VL: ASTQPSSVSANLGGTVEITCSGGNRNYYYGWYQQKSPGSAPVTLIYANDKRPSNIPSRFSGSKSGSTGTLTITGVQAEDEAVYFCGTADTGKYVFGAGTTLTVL landed at 0.04
